Values compiled from paper PMC5615155.

- assay remarks: single-dose pharmacokinetics and oral bioavailability
- Type: in vivo, Sprague-Dawley rats
- experimental conditions: female, Sprague-Dawley, rat, plasma, po, 10 mg/kg
property name: Cmax (ng/mL)
Numbers only, in ng/mL.

For the molecule Cc1cc(C(=O)NC(C)(C)COc2cccc3c2C(N)=NS(=O)(=O)N3)cc(C)n1 , what Cmax is on record?
22.1

###

- target under test: CYP2D6 (Homo sapiens, UniProt P10635)
- Sequence (P10635 whole entry): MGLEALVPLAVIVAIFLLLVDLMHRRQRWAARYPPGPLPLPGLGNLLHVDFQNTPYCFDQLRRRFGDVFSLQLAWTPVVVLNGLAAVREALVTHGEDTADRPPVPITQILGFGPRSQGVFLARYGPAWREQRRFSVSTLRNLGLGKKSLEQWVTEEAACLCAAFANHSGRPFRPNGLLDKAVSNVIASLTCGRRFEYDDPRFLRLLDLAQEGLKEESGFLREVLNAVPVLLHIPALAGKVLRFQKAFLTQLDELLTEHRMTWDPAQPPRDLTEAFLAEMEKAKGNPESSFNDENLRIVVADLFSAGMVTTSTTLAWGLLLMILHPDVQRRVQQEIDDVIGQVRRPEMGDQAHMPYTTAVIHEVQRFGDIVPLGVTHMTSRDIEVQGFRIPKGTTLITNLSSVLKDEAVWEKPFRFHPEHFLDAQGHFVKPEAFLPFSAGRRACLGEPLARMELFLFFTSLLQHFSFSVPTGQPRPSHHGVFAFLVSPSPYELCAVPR
- assay remarks: CYP inhibition, spectrofluorimetric
- Format: biochemical
- experimental conditions: recombinant human CYP2D6 expressed in insect Sf9 cells
property name: inhibition at 10 μM

I have this compound here, Cc1cc(C(=O)NC(C)(C)COc2cccc3c2C(N)=NS(=O)(=O)N3)cc(C)n1 [S2218] , and I need its recorded inhibition at 10 μM.
≤ 7%

###

- assay remarks: single-dose pharmacokinetics and oral bioavailability
- Format: in vivo, Sprague-Dawley rats
- experimental conditions: female, Sprague-Dawley, rat, plasma, po, mean t1/2 of S2218 in plasma, oral dose of S2218 or S8069, female rats
property name: half-life

Can you look up the measured half-life of Cc1cc(C(=O)NC(C)(C)COc2cccc3c2C(N)=NS(=O)(=O)N3)cc(C)n1 for me?
0.75 to 1.25 h

###

- assay remarks: single-dose pharmacokinetics and oral bioavailability
- Format: in vivo, Sprague-Dawley rats
- experimental conditions: female, Sprague-Dawley, rat, plasma, po, 100 mg/kg
property name: Cmax (ng/mL)
Numbers only, in ng/mL.

Which Cmax value is on record for Cc1cc(C(=O)NC(C)(C)COc2cccc3c2C(N)=NS(=O)(=O)N3)cc(C)n1 [S2218] ?
38.7

###

- assay remarks: single-dose pharmacokinetics and oral bioavailability
- Type: in vivo, Sprague-Dawley rats
- experimental conditions: female, Sprague-Dawley, rat, plasma, iv, 1 mg/kg
property name: Vd (L/kg)
One number for each entry, in L/kg.

Could you tell me which Vd is on file for Cc1cc(C(=O)NC(C)(C)COc2cccc3c2C(N)=NS(=O)(=O)N3)cc(C)n1 ?
0.575

###

- assay remarks: single-dose pharmacokinetics and oral bioavailability
- Assay type: in vivo, Sprague-Dawley rats
- experimental conditions: female, Sprague-Dawley, rat, plasma, po, 10 mg/kg
property name: Tmax (min)
Give bare numbers, in min.

Any idea what its Tmax is? The compound is Cc1cc(C(=O)NC(C)(C)COc2cccc3c2C(N)=NS(=O)(=O)N3)cc(C)n1
18.8

###

- assay remarks: single-dose pharmacokinetics and oral bioavailability
- Format: in vivo, Sprague-Dawley rats
- experimental conditions: male, Sprague-Dawley, rat, plasma, po, 100 mg/kg
property name: Cmax
Answer with the number, then the unit.

Give the measured Cmax of Cc1cc(C(=O)NC(C)(C)COc2cccc3c2C(N)=NS(=O)(=O)N3)cc(C)n1 .
76.3 ng/mL

###

- assay remarks: single-dose pharmacokinetics and oral bioavailability
- Format: in vivo, Sprague-Dawley rats
- experimental conditions: female, Sprague-Dawley, rat, plasma, iv, 1 mg/kg, CL, S2218 iv 1 mg/kg bw, F
property name: clearance
// return the numeric value with its unit appended

Given the entry Cc1cc(C(=O)NC(C)(C)COc2cccc3c2C(N)=NS(=O)(=O)N3)cc(C)n1 , report its measured clearance.
38.3 mL/min/kg

###

- assay remarks: single-dose pharmacokinetics and oral bioavailability
- Assay type: in vivo, Sprague-Dawley rats
- experimental conditions: both, Sprague-Dawley, rat, plasma, po, %F, both test articles, male and female rats, all doses
property name: bioavailability

Could you tell me which bioavailability is on file for Cc1cc(C(=O)NC(C)(C)COc2cccc3c2C(N)=NS(=O)(=O)N3)cc(C)n1 ?
0.14 to 0.77%

###

- assay remarks: single-dose pharmacokinetics and oral bioavailability
- Type: in vivo, Sprague-Dawley rats
- experimental conditions: male, Sprague-Dawley, rat, plasma, po, 30 mg/kg
property name: AUC(0-t) (ng·h/mL)
Give bare numbers, in ng·h/mL.

GET /values?readout=AUC(0-t)&item= Cc1cc(C(=O)NC(C)(C)COc2cccc3c2C(N)=NS(=O)(=O)N3)cc(C)n1 [S2218]
33.2

###

- assay remarks: single-dose pharmacokinetics and oral bioavailability
- Assay type: in vivo, Sprague-Dawley rats
- experimental conditions: male, Sprague-Dawley, rat, plasma, po, mean t1/2 of S2218 in plasma, oral dose of S2218 or S8069, male rats
property name: half-life

What does the record list as half-life for Cc1cc(C(=O)NC(C)(C)COc2cccc3c2C(N)=NS(=O)(=O)N3)cc(C)n1 ?
40.2 to 51.6 min

###

- assay remarks: single-dose pharmacokinetics and oral bioavailability
- Type: in vivo, Sprague-Dawley rats
- experimental conditions: female, Sprague-Dawley, rat, plasma, iv, 1 mg/kg
property name: Tmax (min)
Give bare numbers, in min.

Any idea what its Tmax is? The molecule is Cc1cc(C(=O)NC(C)(C)COc2cccc3c2C(N)=NS(=O)(=O)N3)cc(C)n1 [S2218]
1.98

###

- target under test: CYP2C9 (Homo sapiens, UniProt P11712)
- Sequence (P11712 whole entry): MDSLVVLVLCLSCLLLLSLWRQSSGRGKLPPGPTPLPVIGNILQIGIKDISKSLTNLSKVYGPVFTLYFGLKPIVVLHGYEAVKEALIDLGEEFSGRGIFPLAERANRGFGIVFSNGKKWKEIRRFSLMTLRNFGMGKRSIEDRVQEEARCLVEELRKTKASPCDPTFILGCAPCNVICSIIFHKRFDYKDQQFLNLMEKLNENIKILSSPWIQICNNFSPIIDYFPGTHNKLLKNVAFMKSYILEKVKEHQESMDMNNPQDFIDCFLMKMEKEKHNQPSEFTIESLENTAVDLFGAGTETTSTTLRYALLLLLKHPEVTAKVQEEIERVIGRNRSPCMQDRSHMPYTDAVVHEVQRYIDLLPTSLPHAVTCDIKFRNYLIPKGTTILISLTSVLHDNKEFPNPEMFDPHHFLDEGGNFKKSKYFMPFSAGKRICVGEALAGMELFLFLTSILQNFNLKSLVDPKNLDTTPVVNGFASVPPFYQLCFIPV
- assay remarks: CYP inhibition, spectrofluorimetric
- Type: biochemical
- experimental conditions: recombinant human CYP2C9 expressed in insect Sf9 cells
property name: inhibition at 10 μM

Param readout= inhibition at 10 μM; system= CYP2C9 (Homo sapiens, UniProt P11712); entry= Cc1cc(C(=O)NC(C)(C)COc2cccc3c2C(N)=NS(=O)(=O)N3)cc(C)n1 ; returns value.
≤ 7%

###

- assay remarks: single-dose pharmacokinetics and oral bioavailability
- Assay type: in vivo, Sprague-Dawley rats
- experimental conditions: male, Sprague-Dawley, rat, plasma, iv, 1 mg/kg
property name: Cmax (µg/mL)
One number for each entry, in µg/mL.

I'd like to know its Cmax. The compound in question is Cc1cc(C(=O)NC(C)(C)COc2cccc3c2C(N)=NS(=O)(=O)N3)cc(C)n1 [S2218]
2.98
